- testDescription: Drug repurposing screens with cells derived from glioblastoma tumor samples (AID 1345199); further: on the % scale 0 is the no-effect control and ±100 the full control effect; nearly all actives have a fitted effect of over 40% in size
- studyConditions: GBM patient neurospheres viability, ATP luminescence, 48 h; at 45.9 µM (top of the series); tumour line D
Inconclusive results are not listed.

compound: CC(=O)Nc1ccc(OC(=O)c2ccccc2O)cc1
activity, negative = cell killing [%]: -8.68
--
compound: COC(=O)CC[C@H](N)C(=O)O
activity, negative = cell killing [%]: -12.9
--
compound: CCOC(=O)[C@H](CS)NCCN[C@@H](CS)C(=O)OCC
activity, negative = cell killing [%]: -8.47
--
compound: OC[C@H]1OC([S-])[C@H](O)[C@@H](O)[C@@H]1O.[Au+] (stereo partly specified)
activity, negative = cell killing [%]: -19.5
--
compound: CCN(CC)C(=O)[C@]1(c2ccccc2)C[C@@H]1CN
activity, negative = cell killing [%]: -13.9
--
compound: NCC[C@H](O)C(=O)N[C@@H]1C[C@H](N)[C@@H](O[C@H]2O[C@H](CN)[C@@H](O)[C@H](O)[C@H]2O)[C@H](O)[C@H]1O[C@H]1O[C@H](CO)[C@@H](O)[C@H](N)[C@H]1O
activity, negative = cell killing [%]: -17.9
--
compound: COc1ccc(/C=C/C(=O)OCCC(C)C)cc1
activity, negative = cell killing [%]: -11.4
--
compound: CC(=O)O[C@@H]1CC2CCC1(C)C2(C)C (stereo partly specified)
activity, negative = cell killing [%]: -12.8
--
compound: CCc1ncnc2cc(OC)c(OC)cc12
activity, negative = cell killing [%]: -1.42
--
compound: C[C@H](CCC(=O)O)[C@H]1CC[C@H]2[C@@H]3[C@H](O)C[C@@H]4C[C@H](O)CC[C@]4(C)[C@H]3C[C@H](O)[C@]12C
activity, negative = cell killing [%]: 1.82
--
compound: CCCCCCCCCCCC(=O)OCC(O)CO (stereo unspecified)
activity, negative = cell killing [%]: -1.8

----------
- testDescription: Cell Viability - MRC5 (AID 434);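 further: cells exposed to compound for 40 hours at 37 °C; potency reflects cytotoxicity seen as loss of intracellular ATP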
- studyConditions: MRC5 lung fibroblast viability, qHTS
Results filed as inconclusive are left out. Activity calls are given as the source filed them. Calls come from the whole dose curve.
Labels: active, inactive

molecule: CC1=CC(=O)NS(=O)(=O)O1
assignedLabel: inactive
//
molecule: [O-][N+](=Nc1ccccc1)c1ccccc1
assignedLabel: inactive
//
molecule: Nc1ncnc2c1ncn2[C@H]1CC[C@@H](CO)O1
assignedLabel: inactive
//
molecule: O=c1n(CC2CO2)c(=O)n(CC2CO2)c(=O)n1CC1CO1 (stereo unspecified)
assignedLabel: active
//
molecule: CO
assignedLabel: inactive
//
molecule: NC(N)=O
assignedLabel: inactive
//
molecule: CO/N=C(/C(=O)N[C@@H]1C(=O)N2C(C(=O)O)=C(COC(N)=O)CS[C@H]12)c1ccco1
assignedLabel: inactive
//
molecule: CC[C@H]1OC(=O)[C@H](C)[C@@H](O[C@H]2C[C@@](C)(OC)[C@@H](O)[C@H](C)O2)[C@H](C)[C@@H](O[C@@H]2O[C@H](C)C[C@H](N(C)C)[C@H]2O)[C@](C)(O)C[C@@H](C)CN(C)[C@H](C)[C@@H](O)[C@]1(C)O
assignedLabel: inactive
//
molecule: CCCCC
assignedLabel: inactive
//
molecule: CC/C=C\C/C=C\C/C=C\CCCCCCCC(=O)O
assignedLabel: inactive
//
molecule: C/C=C/C=C/C(=O)O
assignedLabel: inactive

----------
- Test system: 3D7
- testDescription: qHTS profiling for inhibitors of Plasmodium falciparum proliferation (AID 504749); further: nearly all actives have a fitted effect of over 60% in size
- studyConditions: P. falciparum in erythrocytes, SYBR Green DNA, 72 h; series mostly up to 28.7 µM
Results filed as inconclusive are left out. Calls of active or inactive are those of the source. Calls follow the shape of the dose curve; as a rule, active = well fitted inhibition curve with a large enough effect; inconclusive = small, poorly fitted or top-dose-only effect; inactive = flat fitted curve, though single readings scatter.
Classes used: active, inactive

molecule: CC1(C)S[C@@H]2[C@H](NC(=O)C3(N)CCCCC3)C(=O)N2[C@H]1C(=O)O
assignedLabel: inactive
--
molecule: O=C(O)/C=C/C(=O)Nc1ccc(S(=O)(=O)Nc2nccs2)cc1
assignedLabel: inactive
--
molecule: CN[C@@H]1[C@H](O[C@H]2[C@H](O[C@H]3[C@H](O)[C@@H](O)[C@H](N=C(N)N)[C@@H](O)[C@@H]3N=C(N)N)O[C@@H](C)[C@]2(O)C=O)O[C@@H](CO)[C@H](O)[C@H]1O
assignedLabel: inactive
--
molecule: CCC(O)c1ccccc1 (stereo not given)
assignedLabel: inactive
--
molecule: C=CC[C@@H]1/C=C(\C)C[C@H](C)C[C@H](OC)[C@H]2O[C@@](O)(C(=O)C(=O)N3CCCC[C@H]3C(=O)O[C@H](/C(C)=C/[C@@H]3CC[C@@H](O)[C@H](OC)C3)[C@H](C)[C@@H](O)CC1=O)[C@H](C)C[C@@H]2OC
assignedLabel: active
--
molecule: NC(=S)NS(=O)(=O)c1ccc(N)cc1
assignedLabel: inactive
--
molecule: NCC[C@H](O)C(=O)N[C@@H]1C[C@H](N)[C@@H](O[C@H]2O[C@H](CN)CC[C@H]2N)[C@H](O)[C@H]1O[C@H]1O[C@H](CO)[C@@H](O)[C@H](N)[C@H]1O
assignedLabel: inactive
--
molecule: CC12CCC(C[N+](C)(CCC[N+](C)(C)C)C1)C2(C)C (stereo not given)
assignedLabel: inactive
--
molecule: CCCCCCCCCCCCCCCCCC[N+](C)(C)CCC[Si](OC)(OC)OC
assignedLabel: inactive
--
molecule: O=[n+]1ccn([O-])c2ccccc21
assignedLabel: inactive
--
molecule: CCC(C(=O)NC(N)=O)c1ccccc1 (stereo not given)
assignedLabel: inactive
--
molecule: ClC(Cl)Cl
assignedLabel: inactive
--
molecule: CC(CC=O)CCCC(C)(C)O (stereo not given)
assignedLabel: inactive
--
molecule: Oc1cc(O)cc(O)c1
assignedLabel: inactive
--
molecule: C[Si](C)(C)O[Si](C)(C)C
assignedLabel: inactive

----------
- Test system: 7G8
- testDescription: qHTS profiling for inhibitors of Plasmodium falciparum proliferation (AID 504749); further: nearly all actives have a fitted effect of over 60% in size
- studyConditions: P. falciparum in erythrocytes, SYBR Green DNA, 72 h; series mostly up to 28.7 µM
- Description: NIH National Institute of Allergy and Infectious Diseases [NIAID] NIH Chemical Genomics Center [NCGC] […] Because mature erythrocytes lack DNA, only Plasmodium-derived DNA is detected. NCGC Assay Protocol Summary: The SYBR Green viability assay was adapted from a method described previously (Plouffe et al., 2008). […] The following morning, fluorescence intensity at 485(14) nm excitation and 535(25) nm emission wavelengths was measured on an EnVision (Perkin Elmer) plate reader. […]
Records with an inconclusive call do not appear. Calls of active or inactive are those of the source. Calls follow the shape of the dose curve; as a rule, active = well fitted inhibition curve with a large enough effect; inconclusive = small, poorly fitted or top-dose-only effect; inactive = flat fitted curve, though single readings scatter.
Possible outcomes: active, inactive

compound: CSCCC(N)C(=O)O (configuration not stated)
assignedLabel: inactive

compound: CC(=O)Oc1cccc2c1C(=O)c1c(OC(C)=O)cc(C(=O)O)cc1C2=O
assignedLabel: inactive

compound: CNC(=O)c1c(I)c(C(=O)NCC(=O)Nc2c(I)c(C(=O)O)c(I)c(C(=O)NCCO)c2I)c(I)c(N(C)C(C)=O)c1I
assignedLabel: inactive

compound: Cc1ncc(C[n+]2csc(CCOP(=O)(O)O)c2C)c(N)n1
assignedLabel: inactive

compound: O=C(O)c1ccc(OCCn2ccnc2)cc1
assignedLabel: inactive

compound: CCCc1ccc(C(=O)O)cc1
assignedLabel: inactive

compound: CCCC(CCC)C(=O)OC1C[C@H]2CC[C@@H](C1)[N+]2(C)C (some centres not stated)
assignedLabel: active

----------
- Test system: P94_40
- testDescription: qHTS profiling for inhibitors of Plasmodium falciparum proliferation (AID 504749); further: nearly all actives have a fitted effect of over 60% in size
- studyConditions: P. falciparum in erythrocytes, SYBR Green DNA, 72 h; series mostly up to 28.7 µM
Inconclusive results are not listed. Calls of active or inactive are those of the source. Calls come from the whole dose curve; as a rule, active = well fitted inhibition curve with a large enough effect; inconclusive = small, poorly fitted or top-dose-only effect; inactive = flat fitted curve, though single readings scatter.

compound: NC(=O)[C@@H]1CCCN1C(=O)[C@H](Cc1cnc[nH]1)NC(=O)[C@@H]1CCC(=O)N1
systemTested: P94_40
outcome: inactive
//
compound: CC1CCC(NC(=O)N(CCCl)N=O)CC1 (stereo unspecified)
systemTested: P94_40
outcome: inactive
//
compound: C[Se]CC[C@H](N)C(=O)O
systemTested: P94_40
outcome: inactive
//
compound: CCCOc1cc(N)ccc1C(=O)OCCN(CC)CC
systemTested: P94_40
outcome: inactive
//
compound: CN1C(C(=O)Nc2ccccn2)C(=O)c2sc(Cl)cc2S1(=O)=O (stereo unspecified)
systemTested: P94_40
outcome: inactive
//
compound: CCCCCCCCCCCCCCCCCC(=O)OC[C@@H](O)[C@H]1OC[C@H](O)[C@H]1O
systemTested: P94_40
outcome: inactive

----------
- Tested on: TAB165
- testDescription: qHTS profiling for inhibitors of Plasmodium falciparum proliferation (AID 504749); further: nearly all actives have a fitted effect of over 60% in size
- studyConditions: P. falciparum in erythrocytes, SYBR Green DNA, 72 h; series mostly up to 28.7 µM
Results filed as inconclusive are left out. Active and inactive are the calls of the source. Calls come from the whole dose curve; as a rule, active = well fitted inhibition curve with a large enough effect; inconclusive = small, poorly fitted or top-dose-only effect; inactive = flat fitted curve, though single readings scatter.
Classes used: y (active), n (inactive)

molecule: C=CCCCCCCCCC(=O)OC
assignedLabel: n
--
molecule: COc1ccc2c(=O)c(C)c(-c3ccccc3)oc2c1CN(C)C
assignedLabel: n
--
molecule: CN1c2c(nc(N)[nH]c2=O)NCC1CNc1ccc(C(=O)NC(CCC(=O)O)C(=O)O)cc1 (configuration not stated)
assignedLabel: n
--
molecule: FC(F)OC(Cl)C(F)(F)F (configuration not stated)
assignedLabel: n
--
molecule: c1ccc2c(c1)OCC(CN1CCCCC1)O2 (configuration not stated)
assignedLabel: n
--
molecule: [O-][N+](=Nc1ccccc1)c1ccccc1
assignedLabel: n
--
molecule: [O]=[Bi][O]C(=O)[O][Bi]=[O]
assignedLabel: n
--
molecule: O=P(O)(O)OP(=O)(O)OP(=O)(O)O
assignedLabel: n
--
molecule: N=C(N)c1ccc(/C=C/c2ccc(C(=N)N)cc2O)cc1
assignedLabel: y
--
molecule: C=CC[C@@H]1/C=C(\C)C[C@H](C)C[C@H](OC)[C@H]2O[C@@](O)(C(=O)C(=O)N3CCCC[C@H]3C(=O)O[C@H](/C(C)=C/[C@@H]3CC[C@@H](O)[C@H](OC)C3)[C@H](C)[C@@H](O)CC1=O)[C@H](C)C[C@@H]2OC
assignedLabel: y
--
molecule: C=C(C)C1CC=C(C)CC1 (configuration not stated)
assignedLabel: n
--
molecule: OCl
assignedLabel: n
